test: Stability in rat whole blood assessed as half life; format: ADME, tissue-based
Square brackets hold non-standard residues; d marks the D form. Peptide text beside a SMILES is read from it. Nle = CCCC[C@H](N)C(=O)O; Aib = CC(C)(N)C(=O)O

compound	half-life / min
CCCC[C@H](NC(=O)[C@H](CC(C)C)NC(=O)[C@H](CCC(N)=O)NC(=O)[C@@H](NC(=O)[C@H](CCC(=O)O)NC(=O)C(C)(C)NC(=O)[C@@H](NC(=O)C(C)(C)N)C(C)C)[C@@H](C)CC)C(=O)N[C@@H](Cc1cnc[nH]1)C(=O)N[C@@H](CCC(N)=O)C(=O)N[C@@H](CCCNC(=N)N)C(=O)N[C@@H](C)C(=O)N[C@@H](CCCCN)C(=O)N[C@@H](Cc1ccc(O)cc1)C(N)=O (H-[Aib]V[Aib]EIQL[Nle]HQRAKY-NH2)	15

====

target: Parathyroid hormone/parathyroid hormone-related peptide receptor (Homo sapiens, UniProt Q03431); assay: Activity at human PTH/PTH-related peptide receptor expressed in SAOS2 cells assessed as cAMP formation; type: functional, cell-based, SAOS-2
Sequence (Q03431 whole entry): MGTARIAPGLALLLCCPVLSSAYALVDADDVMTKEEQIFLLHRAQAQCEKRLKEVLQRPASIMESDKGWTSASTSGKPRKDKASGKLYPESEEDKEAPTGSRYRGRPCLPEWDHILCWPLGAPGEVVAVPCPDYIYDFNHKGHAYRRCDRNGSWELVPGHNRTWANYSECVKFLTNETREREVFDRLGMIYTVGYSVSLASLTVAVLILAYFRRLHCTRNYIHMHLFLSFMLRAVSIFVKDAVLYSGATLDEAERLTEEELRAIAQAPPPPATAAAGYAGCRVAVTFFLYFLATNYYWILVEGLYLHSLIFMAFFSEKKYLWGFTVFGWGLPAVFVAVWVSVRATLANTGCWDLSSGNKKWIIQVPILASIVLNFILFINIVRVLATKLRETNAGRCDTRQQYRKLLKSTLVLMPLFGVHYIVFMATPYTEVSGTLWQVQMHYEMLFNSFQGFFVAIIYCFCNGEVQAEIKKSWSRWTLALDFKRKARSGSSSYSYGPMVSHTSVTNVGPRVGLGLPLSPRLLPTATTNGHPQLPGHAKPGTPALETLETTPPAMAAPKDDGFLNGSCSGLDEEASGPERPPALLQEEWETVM
pEC50: −log10 of the molar value. Square brackets hold non-standard residues; d marks the D form. Peptide text beside a SMILES is read from it. hArg = N=C(N)NCCCC[C@H](N)C(=O)O; Nle = CCCC[C@H](N)C(=O)O

molecule	pEC50
CCCC[C@H](NC(=O)[C@H](CC(C)C)NC(=O)[C@H](CCC(N)=O)NC(=O)[C@@H](NC(=O)[C@H](CCC(=O)O)NC(=O)[C@H](C)NC(=O)[C@@H](NC(=O)[C@H](C)N)C(C)C)[C@@H](C)CC)C(=O)N[C@@H](Cc1cnc[nH]1)C(=O)N[C@@H](CCC(N)=O)C(=O)N[C@@H](CCCCNC(=N)N)C(=O)N[C@@H](C)C(=O)N[C@@H](CCCCN)C(=O)N[C@@H](Cc1c[nH]c2ccccc12)C(=O)N[C@@H](Cc1ccc(O)cc1)C(N)=O (H-AVAEIQL[Nle]HQ[hArg]AKWY-NH2)	5.84

====

biological target: Parathyroid hormone/parathyroid hormone-related peptide receptor (Homo sapiens, UniProt Q03431); assay: Displacement of [125I]DPC-AJ1951 from PTH/PTH-related peptide receptor expressed in HKRK-B28 cells; assay type: cell-based
Square brackets hold non-standard residues; d marks the D form. Peptide text beside a SMILES is read from it. hArg = N=C(N)NCCCC[C@H](N)C(=O)O; Nle = CCCC[C@H](N)C(=O)O
measurement_type: IC50 (µM)

molecule	measurement_type	observed_value
CCCC[C@H](NC(=O)[C@H](CC(C)C)NC(=O)[C@H](CCC(N)=O)NC(=O)[C@@H](NC(=O)[C@H](CCC(=O)O)NC(=O)[C@H](C)NC(=O)[C@@H](NC(=O)[C@H](C)N)C(C)C)[C@@H](C)CC)C(=O)N[C@@H](Cc1cnc[nH]1)C(=O)N[C@@H](CCC(N)=O)C(=O)N[C@@H](CCCCNC(=N)N)C(=O)N[C@@H](C)C(=O)N[C@@H](CCCCN)C(=O)N[C@@H](Cc1c[nH]c2ccccc12)C(=O)N[C@@H](Cc1ccc(O)cc1)C(N)=O (H-AVAEIQL[Nle]HQ[hArg]AKWY-NH2)	IC50	2.19
